Catalogue of sequences with associated Adjusted IL-12 index Mean
Test system: PBMC
Assay: 193 ssRNA 4mer-motif library screen: IL-12 (IL-12p40) production in PBMC of six donors, poly-L-Arg complexation, ELISA at 44 hours, IL-12 index and adjusted IL-12 index
Assay type: cell-based, human
Design: key: IL-12 index (ratio to 9.2sense) minus donor mean, averaged over 6 donors
Conditions: 193 ssRNA oligonucleotide library; data from six individual donors summarized; ascending order
recorded.metric: Adjusted IL-12 index Mean

1. AAAAAAACAUGAAAAAAAA (RNA, backbone not given here) [ANP-Oligo 060] :: −0.46
2. AAAAAAAUCGUAAAAAAAA (RNA, backbone not given here) [ANP-Oligo 166] :: 4.42
3. AAAAAAAACAGAAAAAAAA (RNA, backbone not given here) [ANP-Oligo 015] :: −0.65
4. AAAAAAAAUGUAAAAAAAA (RNA, backbone not given here) [ANP-Oligo 046] :: 0.97
